Listing: pEC50 of selected binders
# testedTarget: T1, cynomolgus monkey Siglec15-his protein (cynomolgus monkey)
# T1 construct: In house made; also called Cynomolgus Siglec15-his; cynomolgus Siglec15
# T1 chain: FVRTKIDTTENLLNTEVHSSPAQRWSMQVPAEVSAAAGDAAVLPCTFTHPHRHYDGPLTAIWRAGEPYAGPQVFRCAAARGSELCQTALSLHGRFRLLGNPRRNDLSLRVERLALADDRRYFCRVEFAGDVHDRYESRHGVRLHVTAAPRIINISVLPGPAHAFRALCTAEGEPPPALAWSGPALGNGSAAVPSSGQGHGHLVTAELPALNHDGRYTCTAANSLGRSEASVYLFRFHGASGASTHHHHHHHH
# protocolDescription: indirect ELISA on coated cynomolgus Siglec15-his
# Procedure: The anti-Siglec15 antibodies' cross-reactions to cynomolgus or mouse Siglec15 proteins were measured. […] The reaction was stopped 4 minutes later at room temperature with 50 μl 1M H₂SO₄, and the absorbance of each well was read on a microplate reader using dual wavelength mode with 450 nm for TMB and 630 nm as the reference wavelength, then the OD (450-630) values were plotted against antibody concentration. Data was analyzed using Graphpad Prism software and EC₅₀ values were reported.
Note on units: pEC50 is unitless, being -log10 of a concentration expressed in mol/L.

Record A2A5C7E8-2 (antibody, human IgG1, kappa, V domains shown, Variant of A2A5C7E8 modified in VH CDR2 (X1 = E)) VH: EVQLVQSGAEVKKPGESLRISCKGSGYSFTTYWISWVRQMPGKGLEWMGLIDPSESYTNYSPSFQGHVTISTDKSISTAYLQWSSLKASDTAMYYCARGGYYGSEEDYWGQGTLVTVSS VL: EIVLTQSPGTLSLSPGERATLSCRASQSVSSSRLAWFQQKSGQAPRLLIFDASSRATGIPDRFSGSGSGTDFTLTISRLEPEDFAVYYCQQYGSSPRTFGQGTKVEFKR . Reported pEC50: 9.82

// sample anti-Siglec15 benchmark (ch5G12) (antibody, human IgG1, kappa, V domains shown, ch5G12 (US 20190202912A1); also called BM; Siglec15-ch5G9) VH: QVQLQQPGAELVKPGASVKMSCKASGYTFTSYWITWVIQRPGQGLEWIGDIYCGSDTMHYNEKFKNKATLTVDTSSSTAYMQLSSLTSEDSAVYYCARWWDYGSSYDYFDYWGQGTTLTVSS VL: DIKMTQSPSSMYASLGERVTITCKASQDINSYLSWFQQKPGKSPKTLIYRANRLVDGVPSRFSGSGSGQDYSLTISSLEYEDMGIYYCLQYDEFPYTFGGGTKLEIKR , its pEC50 was 9.51

According to the records, this binder A2A5C7E8-3 (antibody, human IgG1, kappa, V domains shown, Variant of A2A5C7E8 modified in VH CDR2 (X2 = K)) VH: EVQLVQSGAEVKKPGESLRISCKGSGYSFTTYWISWVRQMPGKGLEWMGLIDPSDSYTNYSPSFKGHVTISTDKSISTAYLQWSSLKASDTAMYYCARGGYYGSEEDYWGQGTLVTVSS VL: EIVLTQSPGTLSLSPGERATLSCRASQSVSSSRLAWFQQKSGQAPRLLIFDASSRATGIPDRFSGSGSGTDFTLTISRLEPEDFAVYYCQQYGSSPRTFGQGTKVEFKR displays pEC50 of 9.84
